Molecular target: Aurora B (Homo sapiens)
Sequence (Q96GD4 whole entry): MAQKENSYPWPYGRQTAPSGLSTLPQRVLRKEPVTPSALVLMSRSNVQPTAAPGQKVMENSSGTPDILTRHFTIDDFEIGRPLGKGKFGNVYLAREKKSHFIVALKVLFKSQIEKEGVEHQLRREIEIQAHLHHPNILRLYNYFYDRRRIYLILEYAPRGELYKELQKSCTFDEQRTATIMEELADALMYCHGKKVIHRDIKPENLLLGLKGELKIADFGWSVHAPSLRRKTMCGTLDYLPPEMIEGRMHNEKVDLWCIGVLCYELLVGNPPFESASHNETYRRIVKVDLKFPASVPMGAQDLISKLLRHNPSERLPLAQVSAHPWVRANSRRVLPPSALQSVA
pIC50: −log10 of the molar value. Counter-ions that a name gives are not always drawn.
Criterion: pIC50 meeting or surpassing 6. Met: True. Not met: False.

Observe how each entry below is paired with its result.
1. Cc1cc(Nc2cccc(CN3CCN(C(=O)c4cccc(Cl)c4Cl)CC3)n2)n[nH]1 [Example 26, trifluoroacetate] ... True
2. Cn1nnnc1-c1cc(CN2CCN(C(=O)c3cccc(Cl)c3F)CC2)nc(Nc2nccs2)c1 [Example 106] ... True
3. CN(C)C(=O)c1cc(CN2CCN(C(=O)c3cccc(Cl)c3F)CC2)nc(Nc2nccs2)c1.O=C(O)C(F)(F)F [Example 86, trifluoroacetate] ... True
4. CC(c1cccc(Nc2cc[nH]n2)n1)N1CCN(C(=O)c2cccc(Cl)c2F)CC1 (centres unmarked) [Example 24] ... False
5. O=C(c1cccc(C(F)(F)F)c1F)N1CCN(Cc2cccc(Nc3ncns3)n2)CC1 [Example 40] ... False

// query Is it the case that O=C(c1nccs1)N1CCN(Cc2cccc(Nc3ncc(Cl)s3)n2)CC1 [Example 67] has pIC50 reaching or exceeding 6?
// result True

// query Reported pIC50 at or above 6? O=C(c1ccsc1)N1CCN(Cc2cccc(Nc3ncc(Cl)s3)n2)CC1 [Example 65]
// result True
